- Read-out: Epidermal growth factor receptor (EGFR), EGFR (gene 1956)
- test: BSK_BE3C_EGFR: BioMAP Diversity Plus: BE3C Assay for Epidermal growth factor receptor (EGFR) Biomarker Activity (AID 2284281)
- assay conditions: primary human bronchial epithelial cells
- Method: BSK_BE3C is a cell-based, multiplexed-readout assay that uses bronchial epithelial cell, a human lung primary cell, with measurements taken at 24 hours after chemical dosing in a 96-well plate.BSK_BE3C_EGFR is an assay component measured in the BSK_BE3C assay. […] The levels of cell surface (or secreted, indicated by the prefix "s") biomarker endpoints were measured by ELISA. […] Plates were read after 6 h.
The source made the active and inactive calls. Rule for the calls: active = hit-call score of the fitted dose curve at least 0.9, where 1 is the maximum; inactive = score below 0.9.
endpoint name: outcome

Please review the following examples before continuing.
>>> print(df.to_string())
                                   compound  endpoint_name    result
0                                   NCCNCCN        outcome  inactive
1                         CCC(=O)OCc1ccccc1        outcome  inactive
2  CC(=O)OCCC(C)CC(C)(C)C (stereo not given)        outcome  inactive
3                  Nc1cc([N+](=O)[O-])ccc1O        outcome  inactive

Data request: Look up outcome: "OC[C@H]1O[C@H](O[C@]2(CCl)O[C@H](CCl)[C@@H](O)[C@@H]2O)[C@H](O)[C@@H](O)[C@H]1Cl"
Data returned: inactive

* * *

- test: ATG_SREBP_CIS: Attagene CIS-FACTORIAL HepG2 Assay for human Sterol Regulatory Element Binding (SREBP) (AID 2282962)
- assay conditions: HepG2 Attagene cis-factorial SREBP reporter, mRNA; actives raise or lower the signal
Active and inactive are the calls of the source. The calls were made as follows: active = hit-call score of the fitted dose curve at least 0.9, where 1 is the maximum; inactive = score below 0.9.
Would you mind answering with one of these outcomes? active, inactive

In [3]: df
Out[3]:
                               input_smiles  class_name
0                            CCOc1ccccc1OCC    inactive
1                             Cc1cccc(C)c1C    inactive
2         COc1cc(C(C)(C)C)c(O)c(C(C)(C)C)c1    inactive
3               CC(C)[C@H]1CC[C@@H](C)CC1=O    inactive
4  O=C(O)C[C@H](O)C[C@H](O)/C=C/c1c(C2CC2)nc2ccccc2c1-c1ccc(F)cc1      active

Data request: Can you look up the reported call for "CCOC(=O)c1ccccc1OC" for me?
Data returned: inactive

Data request: Can you look up the reported call for "Cc1ccc(C=O)cc1" for me?
Data returned: inactive

* * *

- test: ATG_E_Box_CIS: Attagene CIS-FACTORIAL HepG2 Assay for human Enhancer Box (E-box) (AID 2282936)
- assay conditions: HepG2 E-box cis-reporter transcription, actives raise or lower the signal
Calls of active or inactive are those of the source. Rule for the calls: active = hit-call score of the fitted dose curve at least 0.9, where 1 is the maximum; inactive = score below 0.9.
Would you mind answering with one of these outcomes? yes (1) for active, no (0) for inactive

                                   compound  class_name
0  C=CC(C)(CCC=C(C)C)OC=O (stereo unspecified)      no (0)
1  C=CC(=O)OCCn1c(=O)n(CCOC(=O)C=C)c(=O)n(CCOC(=O)C=C)c1=O     yes (1)
2                CCN(CC)CCOC(=O)c1ccc(N)cc1      no (0)
3    CC(C)=CCCC(C)CC=O (stereo unspecified)      no (0)

Data request: Can you look up the reported call for "CCCC(=O)C(C)=O" for me?
Data returned: no (0)

Data request: Can you look up the reported call for "CCN(CC)c1ccc(C(=C2C=CC(=[N+](CC)CC)C=C2)c2ccc(S(=O)(=O)O)cc2S(=O)(=O)[O-])cc1" for me?
Data returned: no (0)

Data request: Can you look up the reported call for "O=C(O)Cc1cccc2ccccc12" for me?
Data returned: no (0)

Data request: Can you look up the reported call for "CC(C)(C)NC(N)=O" for me?
Data returned: no (0)

Data request: Can you look up the reported call for "CCCCCCCCCCCCCOS(=O)(=O)O" for me?
Data returned: no (0)

Data request: Can you look up the reported call for "COc1c(Cl)c(Cl)c(Cl)c(Cl)c1Cl" for me?
Data returned: no (0)

Data request: Can you look up the reported call for "COC(=O)OC" for me?
Data returned: no (0)

Data request: Can you look up the reported call for "Sc1nc(S)nc(S)n1" for me?
Data returned: no (0)

* * *

- test: ATG_TGFb_CIS: Attagene CIS-FACTORIAL HepG2 Assay for human Transforming Growth Factor (TGF) (AID 2282967)
- assay conditions: HepG2 Attagene CIS TGFb reporter, mRNA transcription; actives raise or lower the signal
Activity calls are given as the source filed them. Rule for the calls: active = hit-call score of the fitted dose curve at least 0.9, where 1 is the maximum; inactive = score below 0.9.
Would you mind answering with one of these outcomes? active, inactive

>>> df
                                   molecule  class_name
0               CSc1nnc(C(C)(C)C)c(=O)[nH]1    inactive
1                  CCCCCCCCCCCCCOS(=O)(=O)O    inactive
2                              NCCCN1CCOCC1    inactive
3                               N#Cc1ccccc1    inactive
4  CO[Si](CCCn1c(=O)n(CCC[Si](OC)(OC)OC)c(=O)n(CCC[Si](OC)(OC)OC)c1=O)(OC)OC    inactive
5                                   NCCOCCO    inactive
6                    CC(=O)[O][Al][O]C(C)=O    inactive
7                       CC(=O)OCC=Cc1ccccc1    inactive
8      CC(=O)O[C@H](CC(=O)[O-])C[N+](C)(C)C    inactive
9                          CC(C)c1cccc(O)c1    inactive

Data request: Can you look up the reported call for "O=C1CCCCCCCCCCCCCCO1" for me?
Data returned: active

Data request: Can you look up the reported call for "Clc1sc(Cl)c(Cl)c1Cl" for me?
Data returned: inactive

Data request: Can you look up the reported call for "C=C(C)[C@@H]1CCC2=CC(=O)C[C@@H](C)[C@]2(C)C1" for me?
Data returned: active

Data request: Can you look up the reported call for CC(CCO)CCc1ccccc1 (stereo unspecified) for me?
Data returned: inactive

Data request: Can you look up the reported call for "CCCc1ccccc1O" for me?
Data returned: inactive

Data request: Can you look up the reported call for CCCC1CCC(=O)O1 (stereo unspecified) for me?
Data returned: inactive

Data request: Can you look up the reported call for "COc1cc(C(C)(C)C)c(O)c(C(C)(C)C)c1" for me?
Data returned: inactive

Data request: Can you look up the reported call for "CCCCCCCCCC=O" for me?
Data returned: inactive

Data request: Can you look up the reported call for "O=C(O)c1ccc([N+](=O)[O-])cc1" for me?
Data returned: inactive

Data request: Can you look up the reported call for "CC(C)(C)C(=O)c1ccccc1" for me?
Data returned: inactive

Data request: Can you look up the reported call for "Cc1ccc(C(C)C)cc1O" for me?
Data returned: inactive

Data request: Can you look up the reported call for "Nc1cccc(S(=O)(=O)c2cccc(N)c2)c1" for me?
Data returned: inactive

Data request: Can you look up the reported call for "O=C[C@H](O)[C@H](O)[C@H](O)CO" for me?
Data returned: inactive

Data request: Can you look up the reported call for CC1(CO)CN(c2ccccc2)NC1=O (stereo unspecified) for me?
Data returned: inactive

* * *

- test: TOX21_p53_BLA_p2_viability: Viability Assessment in the Tox21 HCT-116 p53 Agonism Beta-lactamase Assay, Phase 2 (AID 2283591);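 note: compound exposure lasted 16 h at 37 °C; actives lower the ATP signal meaning cytotoxicity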
Records with an inconclusive call do not appear. Calls of active or inactive are those of the source. Rule for the calls: active = hit-call score of the fitted dose curve at least 0.9, where 1 is the maximum; inconclusive = response in the unintended direction; inactive = score below 0.9.
Would you mind answering with one of these outcomes? t (active), f (inactive)

Known results for compounds:
>>> print(df.to_string())
                               input_smiles  class_name
0                          O=C1CCc2ccccc2O1           f
1                                 CCCCCCCCC           f
2                              Cc1ccccc1C=O           f
3  O=C(O)CN(CCN(CC(=O)O)CC(=O)O)CCN(CC(=O)O)CC(=O)O           f

Data request: Can you look up the reported call for "CCCc1c(OCCCOc2ccc(OCC(=O)O)cc2)ccc(C(C)=O)c1O" for me?
Data returned: t

Data request: Can you look up the reported call for "O=C(Oc1ccccc1)c1ccc(O)cc1" for me?
Data returned: f

Data request: Can you look up the reported call for "CC(C)c1cccc(O)c1" for me?
Data returned: f

Data request: Can you look up the reported call for "CCCCOCCOCCSC#N" for me?
Data returned: f
